System: A549/ATCC NSCLC
Protocol text: NCI-60 one-dose screen, 48 h
Assay conditions: 10 µM unless noted
Compounds without any hit were thinned out: in the full panel of roughly 83,000, 20% have a hit. Active and inactive are the calls of the source. The calls were made as follows: active = growth percent below 10; inactive = the rest.
Output constraint: value belongs to active, inactive

The following compounds have reported results that may help.
>  <Compound>
C=CCN1C(=O)/C(=c2\sc3n(c2=O)C2C(NN=3)N(CC)C(=O)N2CC)c2ccccc21 (centres undefined)

>  <Category label>
inactive

$$$$
>  <Compound>
CC(C)CC(=O)C(CCc1ccccn1)C(C)C (centres undefined)

>  <Category label>
inactive

$$$$
>  <Compound>
CCOC(=O)c1cc(N)nc2ccccc12

>  <Category label>
inactive

$$$$
>  <Compound>
CC(C)(C)c1ccc(OC(=O)Nc2ccccc2)cc1

>  <Category label>
inactive

$$$$
>  <Compound>
COc1ccccc1CNCCCN1C(=O)c2ccc3c4c(ccc(c24)C1=O)C(=O)N(CCCOCCCCOCCCN)C3=O

>  <Category label>
active

$$$$
>  <Compound>
NS(=O)(=O)c1ccc(CCn2c(SCC(=O)N/N=C/c3cc4ccccc4[nH]3)nc3ccccc3c2=O)cc1

>  <Category label>
inactive

$$$$
>  <Compound>
O=C(Nc1ccc(Br)cc1)Nc1cccc(Br)c1

>  <Category label>
inactive

$$$$
>  <Compound>
COc1cc(Nc2ncccc2/C=C/C(=O)c2cc(OC)c(OC)c(OC)c2)cc(OC)c1OC

>  <Category label>
inactive

$$$$

Query: recorded result category for COc1cccc(-c2cc(-c3cccs3)c(C#N)c(=O)[nH]2)c1 in this test inactive

And the next one, COc1ccc(C(=O)C(CN(C)C)c2ccc(OC)cc2)cc1 (centres undefined) ? inactive

// same read-out, input: CC1=CCC2C1CC=C(C)C(CC[C@H]1[C@@](C)(O)CCC3OC(C)(C)[C@H](OC(=O)c4ccccc4)CC[C@@]31C)C2(C)C (some centres undefined) inactive

Entry O=C(/C=C/c1ccco1)c1ccccc1O please inactive

Next: O=C1OCC2=C1C(c1ccccc1)c1cc3c(cc1N2CCO)OCO3 (centres undefined) inactive

* * *

System: OVCAR-3 ovarian
Protocol text: NCI-60 one-dose screen, 48 h (100 = growth as untreated, 0 = no growth, -100 = all killed)
Assay conditions: 10 µM unless noted
Method: Growth inhibition of the OVCAR-3 human tumor cell line is measured as a screen for anti-cancer activity. Cells are grown in 96 well plates and exposed to the test compound for 48 hours. Compounds are tested at a single concentration, which is 10^-5 M for most compounds. The reported endpoint is percent growth (GI% or GIPRCNT), where numbers from 0 - 100% represent growth inhibition, and numbers from -100% - 0 represent cell death. For example, a value of 40 represents 60% growth inhibition. […]
The panel holds about 83,000 compounds, 20% with a hit somewhere; the sample as a whole holds those more often.
Classify by measured growth: Y if it is equal to or exceeds 80%, N if it is smaller.

>  <Molecule>
CCN(CC)Cc1cc(Nc2ccnc3ccc(OC)cc23)ccc1O

>  <Category label>
N

$$$$
>  <Molecule>
COc1cccc(-c2nc3sccn3c2-c2ccnc(NCCN3CCCNS3(=O)=O)n2)c1

>  <Category label>
Y

$$$$
>  <Molecule>
CCCCCCCCCCCCCCCCCC1=NCCN1CCO

>  <Category label>
N

$$$$
>  <Molecule>
CS(=O)(=O)c1ccc(C(=O)N/N=C/c2ccc3c(c2)OCO3)cc1

>  <Category label>
Y

$$$$
>  <Molecule>
O=C1CCCN1C1CCN2CCCc3cccc1c32 (stereo unspecified)

>  <Category label>
Y

$$$$
>  <Molecule>
CCCNCCC(C)=O

>  <Category label>
Y

$$$$
>  <Molecule>
O=C1/C=C/[C@@H](O)[C@@H]2C[C@@H](O)C[C@H]2/C=C/CCC[C@H]([C@@H](O)CO)O1

>  <Category label>
Y

$$$$
>  <Molecule>
O=C(N/N=C/c1ccccc1O)c1ccncc1

>  <Category label>
N

$$$$

# bool: growth of Cn1cnc([N+](=O)[O-])c1S(=O)(=O)Oc1cccc2ccccc12 >= 80% N

Another: CC(=O)c1ccc(N2C(=O)c3ccc(Oc4ccccc4)cc3C2=O)cc1 Y

Try CSc1ccc(/C=C2\C=C(CC(=O)NCc3ccc(C(=O)c4ccccc4)cc3)c3cc(F)ccc32)cc1 next. N

* * *

Test system: A549/ATCC NSCLC
Protocol text: NCI-60 one-dose screen, 48 h (100 = growth as untreated, 0 = no growth, -100 = all killed)
Assay conditions: 10 µM unless noted
About 83,000 compounds went through this panel and 20% of them were active in at least one assay; those are over-represented in the sample as a whole. Calls of active or inactive are those of the source. The calls were made as follows: active = growth percent below 10; inactive = the rest.
Assay endpoint: growth

>  <Compound>
CC(=O)N1N=C(C2C(=O)N(C)C(=O)N(C)C2=O)CC1c1ccccc1C(=O)O (stereo unspecified)

>  <Assay endpoint>
growth

>  <Result value>
98.4% (inactive)

$$$$

What measured growth goes with Cc1ccc(C)c2c1SC1=NNC(Oc3ccc(Cl)cc3)=C(C#N)C(=N)N12 ? 108% (inactive)

Same for O=[N+]([O-])c1ccc(SSc2ccc([N+](=O)[O-])cc2Cl)c(Cl)c1 96.3% (inactive)

* * *

System: SF-295 CNS
Protocol text: NCI-60 one-dose screen, 48 h (100 = growth as untreated, 0 = no growth, -100 = all killed)
Assay conditions: 10 µM unless noted
About 83,000 compounds went through this panel and 20% of them were active in at least one assay; those are over-represented in the sample as a whole.
Each entry below carries its recorded growth.
The reply should contain only the number, in %.

>  <Compound>
Clc1ccc(C2=NN[C@H](c3cn(-c4ccccc4)nc3-c3ccccc3)C2)cc1

>  <Test target>
SF-295 CNS

>  <growth / %>
-20.8

$$$$
>  <Compound>
CCCCCCCCCCCCCC

>  <Test target>
SF-295 CNS

>  <growth / %>
99.2

$$$$
>  <Compound>
CC(C)(C)OC(=O)N1CCCN(CCNc2nccc(-c3c(-c4cccc(O)c4)nc4sccn34)n2)S1(=O)=O

>  <Test target>
SF-295 CNS

>  <growth / %>
112

$$$$
>  <Compound>
COc1nccc2c(Sc3ccccc3)nc(N)nc12

>  <Test target>
SF-295 CNS

>  <growth / %>
103

$$$$

I'd like to know its growth. The compound in question is C=C1C(=O)O[C@H]2[C@H]1CC/C(COC(=O)N[C@@H](Cc1c[nH]c3ccccc13)C(=O)OC)=C\CC[C@@]1(C)O[C@@H]21 72.3

Similarly, Cc1c(C(=O)Nc2ccccc2F)sc2c(=O)[nH]cnc12 ? 85.4

Consider next the compound CS(=O)(=O)c1ccc(Cl)c([N+](=O)[O-])c1 in the same way. 102

Input CN1C(=O)N(C)C2C1NN=c1s/c(=C\c3ccsc3)c(=O)n12 (stereo not given) 25

Request: COc1ccc(C2NC(=O)c3cc4c(cc3N2)OCO4)cc1 (stereo not given) -14

Ok, now NS(=O)(=O)c1ccc(CCn2c(SCC(=O)N/N=C/c3ccccc3O)nc3ccccc3c2=O)cc1 39.7

* * *

System: MDA-MB-435 melanoma
Protocol text: NCI-60 one-dose screen, 48 h (100 = growth as untreated, 0 = no growth, -100 = all killed)
Assay conditions: 10 µM unless noted
About 83,000 compounds went through this panel and 20% of them were active in at least one assay; those are over-represented in the sample as a whole.
Rule: growth of 40% or more gives Condition met; anything lower gives Condition not met.

I'd appreciate it if you could say whether COc1ccc(-c2nn(C(=O)NCCN(C)C)cc2-c2ccncc2)cc1Cl has growth at least equal to 40%. Condition not met

Now this one: COC(=O)c1ccc2c(c1)nc(-c1cc3ccccc3[nH]c1=O)n2-c1cc(C(C)(C)C)[nH]n1 Condition met

Try the compound CC(C)CC1NC(=O)C(CC(C)C)N(CO)C1=O (stereo unspecified) Condition met

Another compound to look at: CNC1=C([N+](=O)[O-])C(c2ccccc2O)C(C#N)=C(c2cccs2)O1 (stereo unspecified) Condition met

Likewise for CCCCCCCCCCCCCCCCCC(=O)[O][Sn]([CH2]CCC)([CH2]CCC)[CH2]CCC ? Condition not met

Now consider O=S1(=O)NCCCN1CCNc1nccc(-c2c(-c3cccc(O)c3)nc3sccn23)n1 . Condition not met

* * *

Tested on: OVCAR-4 ovarian
Protocol text: NCI-60 one-dose screen, 48 h (100 = growth as untreated, 0 = no growth, -100 = all killed)
Assay conditions: 10 µM unless noted
This is part of a sample that, as a whole, favours compounds with a hit. Of some 83,000 tested, about 20% had one in any assay.
Assay endpoint: growth (%)
Response body: numeric value in %, unit text excluded.

>  <Molecule>
c1cc(C2CCCCC2)ccc1-c1cnc2nonc2n1

>  <Units symbol>
%

>  <growth>
43.9

$$$$
>  <Molecule>
COc1cc(OC)c2sc(-c3ccc(-n4cncc4-c4ccc(OC)c(N)c4)cc3)nc2c1

>  <Units symbol>
%

>  <growth>
78

$$$$
>  <Molecule>
O=C(Nc1ccc(Cl)cc1)c1cc(-c2ccc(Cl)cc2)c2sc(=O)[nH]c2n1

>  <Units symbol>
%

>  <growth>
13

$$$$
>  <Molecule>
COc1ccc(CNc2c3ccccc3nc3ccc(OC)cc23)cc1

>  <Units symbol>
%

>  <growth>
18.4

$$$$
>  <Molecule>
O=C(O)c1ccccc1Oc1cc(-c2ccco2)nc(OCCN2CCOCC2)n1

>  <Units symbol>
%

>  <growth>
108

$$$$
>  <Molecule>
CCOCCNc1ccc(S(=O)(=O)c2ccc(N)cc2)cc1N

>  <Units symbol>
%

>  <growth>
100

$$$$

Param item = NNC(=O)CSc1nc2scc(-c3ccccc3)c2c(=O)n1-c1ccccc1 ; retrieve measured growth. 92.8

Next up: COc1ncnc2[nH]cc(CN3CCN(c4ccc(F)cc4)CC3)c12 115

Also CC1(C)OC2OC3C(CN)OC(c4ccccc4)OC3C2O1 (stereo unspecified) ? 111

Also check CC1=C(O)C(=O)CC1 105

Could you do the same for COc1cc(CN2CCC(N3CCCC3=O)c3ccccc32)cc(OC)c1OC (stereo unspecified) , please? 41.3
